Test system: EKVX NSCLC
Assay: NCI tumour cell line growth inhibition, 48 h
Use T when the recorded TGI is no lower than 30 µM; use F when it is lower.

{"Compound": "COC(=O)c1c(OC(C)=O)ccc2c1c1c(OC(C)=O)c3ccccc3c(OC(C)=O)c1n2C", "Group": "T"}
{"Compound": "Cn1c(=O)c2nc3c4ccccc4c(=O)n(C)c3nc2n(C)c1=O", "Group": "T"}
{"Compound": "COc1ccc(/C=C/c2nnc(/C=C/c3ccc(OC)c(OC)c3)o2)cc1OC", "Group": "T"}
{"Compound": "CC(C)C1CNC2N1C(=O)C2(C)OCc1ccccc1 (configuration not stated)", "Group": "T"}
{"Compound": "O=C(CNc1cccc(Cl)c1)Nn1c(-c2ccccc2)nc2ccccc2c1=O", "Group": "T"}
{"Compound": "COc1cccc2c1-c1ccccc1[C@H](Nc1ccccc1)[C@@]2(C)O", "Group": "F"}
{"Compound": "CC(=O)OCC1OC(n2c(-c3ccc(C)cc3)cc(-c3ccco3)c(C#N)c2=S)C(OC(C)=O)C(OC(C)=O)C1OC(C)=O (configuration not stated)", "Group": "T"}
{"Compound": "O=C(O)CNC(=O)C(CSC(=O)OCC1c2ccccc2-c2ccccc21)NC(=O)CCC(NC(=O)OCC1c2ccccc2-c2ccccc21)C(=O)O (configuration not stated)", "Group": "T"}
{"Compound": "CCCCCCCCc1cc[n+](CC(=O)c2ccc(Br)cc2)cc1", "Group": "F"}
{"Compound": "NC(N)=N/N=C(/CC1OC(=O)c2ccccc21)c1ccc2ccccc2c1 (configuration not stated)", "Group": "T"}
{"Compound": "COc1cc(Br)cc2cc(C3=CSC4=NCCN34)c(=O)oc12", "Group": "T"}
{"Compound": "CN(C)c1ccc(/C=C/c2nc3ccccc3s2)cc1", "Group": "T"}
{"Compound": "N=c1oc2c(O)c(O)ccc2cc1C(N)=O", "Group": "T"}
{"Compound": "Nc1cc2c([nH]c[n+]2CC#CCCl)c(SCC#CCCl)n1", "Group": "F"}
{"Compound": "ClCCC[Si]12OCCN(CCO1)CCO2", "Group": "T"}

* * *

Quick reference: TGI of the listed items.
Tested on: HCT-116 colon
Test: NCI tumour cell line growth inhibition, 48 h

{"Compound": "COc1cc(-c2n[nH]nc2-c2ccc3c(c2)OCCO3)cc(OC)c1OC", "TGI": "0.811 µM"}
{"Compound": "C=C1CC(Cn2ccc(=O)[nH]c2=O)(c2ccc(OC)cc2)OC1=O (centres undefined)", "TGI": "20 µM"}
{"Compound": "O=C(O)C1[C@@H](C(=O)O)C1(Br)CBr (some centres undefined)", "TGI": "> 100 µM"}
{"Compound": "CC(=O)c1nc2ccccc2n1CCN1CCN(C)CC1", "TGI": "> 100 µM"}
{"Compound": "COc1cc(Br)cc2cc(C3=CSC4=NCCN34)c(=O)oc12", "TGI": "32.2 µM"}
{"Compound": "Cc1cc(NN)nc2n[nH]c(N)c12", "TGI": "> 100 µM"}
{"Compound": "Cc1ccc(Nc2nc3nc[nH]c3c(=O)[nH]2)cc1CO", "TGI": "25.4 µM"}
{"Compound": "N#CCN1c2ccccc2CCC1Cl (centres undefined)", "TGI": "> 10 µM"}
{"Compound": "COC1=CC(c2ccc[nH]2)=N/C1=C\\c1[nH]c(C)c(C(=O)CCCCC(=O)NCc2ccccc2)c1C", "TGI": "2.83 µM"}
{"Compound": "CC1(C)SC2C(NC(=O)C(C(=O)O)c3ccccc3)C(=O)N2C1C(=O)O (centres undefined)", "TGI": "> 100 µM"}
{"Compound": "C[C@H]1COC(c2ccccn2)=N1", "TGI": "> 100 µM"}
{"Compound": "COc1cc(/C=N\\O)cc(/C=N/O)c1O", "TGI": "> 100 µM"}
{"Compound": "COc1cc2cccc(N=Cc3ccccc3Cl)c2cc1OC", "TGI": "> 100 µM"}
{"Compound": "COc1ccccc1N1C(=O)/C(=C\\c2cc(OC)c(OC)c(OC)c2)SC1c1ccccc1 (centres undefined)", "TGI": "> 100 µM"}
{"Compound": "O=C(/C=C/c1ccsc1)c1ccc(Cl)cc1", "TGI": "> 100 µM"}
{"Compound": "CC(C)CCNc1ncnc2[nH]ncc12", "TGI": "> 100 µM"}
{"Compound": "N=[N+]=NC1C(O)C(CO)OC1n1cnc2c(N)ncnc21 (centres undefined)", "TGI": "> 100 µM"}
{"Compound": "O=S1CCN(Cc2ccc(-c3ccc4ncnc(Nc5ccc(OCc6ccccc6)c(Cl)c5)c4c3)o2)CC1", "TGI": "> 25 µM"}
{"Compound": "CC1=CN(c2ccccc2)S2=C1c1sc3c(c1N2c1ccc(Br)cc1)CCCC3 (centres undefined)", "TGI": "> 100 µM"}
{"Compound": "CC(=O)N1CCc2[nH]c3ccccc3c2CC1", "TGI": "> 100 µM"}
{"Compound": "CCCC(c1nnnn1C1CCCCC1)N1CCN(C(=O)c2ccco2)CC1 (centres undefined)", "TGI": "> 100 µM"}
{"Compound": "C[n+]1c(-c2ccccc2)cc2/c(=C\\c3ccccc3)c3ccccc3n21", "TGI": "4.91 µM"}
{"Compound": "Cc1ccc(C2(c3ccc(C)cc3)SC(=C(C#N)C#N)c3ccccc32)cc1", "TGI": "> 100 µM"}
{"Compound": "COC(=O)C(C(=O)C(=O)Nc1nc2ccc([N+](=O)[O-])cc2s1)c1nc2ccc(Cl)cc2[nH]c1=O (centres undefined)", "TGI": "> 100 µM"}
{"Compound": "O=C(N/S(=N/S(=O)(=O)c1ccc(Br)cc1)C(Cl)(Cl)Cl)c1ccccc1 (centres undefined)", "TGI": "> 100 µM"}
{"Compound": "NN/C(=N\\S(=O)(=O)c1cc2ccccc2o1)Nc1ccc(Cl)cc1", "TGI": "> 100 µM"}
{"Compound": "Cn1ncc2c(Sc3ccc(Cl)cc3)ncnc21", "TGI": "> 100 µM"}
{"Compound": "N#Cc1c(-c2ccccc2)cc(-c2ccccc2)n(CC(=O)NO)c1=O", "TGI": "> 100 µM"}
{"Compound": "O=C(O)CC(O)(c1ccccc1C(=O)O)c1cccc2ccccc12 (centres undefined)", "TGI": "> 100 µM"}
